Origin of values: patent US9120779B2

- Test system: HCV genotype 1b replicon in Huh 7 cells
- assay protocol: HCV replicon assay (luciferase readout, 1b_Huh-Luc/Neo-ET cell line)
- Format: cell-based
- experimental context: Hepatitis C virus, Huh-7, 72 h, read-out: Inhibition of HCV genotype 1b, Table 1, 72 h incubation
pEC50: −log10 of the molar value.
Reported pEC50 by item:

As a guide, the following entries are already answered.
# compound, target entity, measurement
measured = [
    ("COC(=O)N[C@H](C(=O)N1CCC[C@H]1c1ncc(-c2ccc([C@H]3CC[C@H](c4cnc([C@@H]5CCCN5C(=O)[C@H](NC(=O)NC5CCOCC5)C(C)C)[nH]4)CC3)cc2)[nH]1)C(C)C [compound 944]", "HCV genotype 1b replicon in Huh 7 cells", "> 9.00"),
    ("CC(C)[C@H](NC(=O)OC(C)(C)C)C(=O)N1CCC[C@H]1c1ncc(-c2ccc([C@H]3CC[C@H](c4cnc([C@@H]5CCCN5C(=O)[C@@H](NC(=O)OC(C)(C)C)C(C)C)[nH]4)CC3)cc2)[nH]1 [compound 383]", "HCV genotype 1b replicon in Huh 7 cells", "6.00 to 8.00"),
    ("O=C(N[C@H]1CC[C@@H](c2ccc(-c3cnc([C@@H]4CCCN4C(=O)[C@H](NC(=O)N4CCOCC4)c4ccccc4)[nH]3)cc2)CC1)[C@@H]1CCCN1C(=O)[C@H](NC(=O)N1CCOCC1)c1ccccc1 [compound 355]", "HCV genotype 1b replicon in Huh 7 cells", "8.00 to 9.00"),
    ("COC(=O)N[C@H](C(=O)N1CCC[C@H]1c1ncc(-c2ccc(C3CCC(c4cnc([C@@H]5CCCN5C(=O)[C@@H](NC(=O)OC)c5ccccc5)[nH]4)CC3)cc2)[nH]1)c1ccccc1 (stereo partly drawn) [compound 374]", "HCV genotype 1b replicon in Huh 7 cells", "> 9.00"),
    ("COC(=O)N[C@H](C(=O)N1CCC[C@H]1c1ncc([C@H]2CC[C@H](c3ccc(-c4cnc([C@@H]5CCCN5C(=O)[C@H](NC(=O)OC)c5ccccc5)[nH]4)cc3)CC2)[nH]1)C(C)C [compound 2002]", "HCV genotype 1b replicon in Huh 7 cells", "> 9.00"),
    ("COC(=O)N[C@@H](C)C(=O)N1CCC[C@H]1c1ncc(-c2ccc([C@H]3CC[C@H](c4cnc([C@@H]5CCCN5C(=O)[C@H](C)NC(=O)OC)[nH]4)CC3)cc2)[nH]1 [compound 387]", "HCV genotype 1b replicon in Huh 7 cells", "> 9.00"),
    ("COC(=O)N[C@@H](C(=O)N1CCC[C@H]1c1ncc(-c2ccc([C@H]3CC[C@@H](NC(=O)[C@@H]4CCCN4C(=O)[C@H](NC(=O)N4CCOCC4)c4ccccc4)CC3)cc2)[nH]1)c1ccccc1 [compound 370]", "HCV genotype 1b replicon in Huh 7 cells", "8.00 to 9.00"),
    ("COC(=O)N[C@H](C(=O)N1CCC[C@H]1c1ncc(-c2ccc([C@H]3CC[C@H](c4cnc([C@@H]5CCCN5C(=O)[C@@H](c5ccccc5)N(C)C)[nH]4)CC3)cc2)[nH]1)C(C)C [compound 940]", "HCV genotype 1b replicon in Huh 7 cells", "> 9.00"),
]

From here, focus on the item given below.
# pEC50 lookup, item COC(=O)N[C@@H](C(=O)N1CCC[C@H]1c1ncc(-c2ccc([C@H]3CC[C@H](NC(=O)[C@@H]4CCCN4C(=O)[C@H](NC(=O)N4CCOCC4)c4ccccc4)CC3)cc2)[nH]1)c1ccccc1 [compound 369]
8.00 to 9.00

* * *

Reported EC50 by item:
- System: HCV genotype 1b replicon in Huh 7 cells
- assay protocol: HCV replicon assay (luciferase readout, 1b_Huh-Luc/Neo-ET cell line)
- Format: cell-based
- experimental context: Hepatitis C virus, Huh-7, 72 h, read-out: Inhibition of HCV genotype 1b, Table 1, 72 h incubation

As a guide, the following entries are already answered.
# compound, endpoint, measurement
rows = [
    ("COC(=O)N[C@H](C(=O)N1CCC[C@H]1c1ncc(-c2ccc([C@H]3CC[C@H](c4cnc([C@@H]5CCCN5C(=O)[C@@H](NC(=O)OC5CCOCC5)C(C)C)[nH]4)CC3)cc2)[nH]1)C(C)C", "EC50", "< 1 nM"),
    ("CC(C)[C@@H](NC(=O)N1CCOCC1)C(=O)N1CCC[C@H]1C(=O)N[C@H]1CC[C@@H](c2ccc(-c3cnc([C@@H]4CCCN4C(=O)[C@H](NC(=O)N4CCOCC4)C(C)C)[nH]3)cc2)CC1", "EC50", "10 to 999 nM"),
    ("O=C(N[C@@H](C(=O)N1CCC[C@H]1c1ncc(-c2ccc(C3CCC(c4cnc([C@@H]5CCCN5C(=O)[C@H](NC(=O)N5CCOCC5)c5ccccc5)o4)CC3)cc2)[nH]1)c1ccccc1)N1CCOCC1 (some centres unmarked)", "EC50", "< 1 nM"),
    ("COC(=O)N[C@H](C(=O)N1CCC[C@H]1c1ncc(-c2ccc([C@H]3CC[C@H](c4cnc([C@@H]5CCCN5C(=O)[C@H](C(C)C)N(C)C)[nH]4)CC3)cc2)[nH]1)C(C)C", "EC50", "< 1 nM"),
]

From here, focus on the item given below.
# EC50 lookup, item `CC[C@H](C)[C@H](NC(=O)OC)C(=O)N1CCC[C@H]1c1ncc(-c2ccc([C@H]3CC[C@H](c4cnc([C@@H]5CCCN5C(=O)[C@@H](NC(=O)OC)[C@@H](C)CC)[nH]4)CC3)cc2)[nH]1`
< 1 nM

* * *

- Tested on: HCV genotype 1b replicon in Huh 7 cells
- assay protocol: HCV replicon assay (luciferase readout, 1b_Huh-Luc/Neo-ET cell line)
- Format: cell-based
- experimental context: Hepatitis C virus, Huh-7, 72 h, read-out: Inhibition of HCV genotype 1b, Table 1, 72 h incubation
Reported EC50 by item:

As a guide, the following entries are already answered.
# compound, target entity, measurement
data = [
    ("CC(C)[C@@H](NC(=O)N1CCOCC1)C(=O)N1CCC[C@H]1C(=O)N[C@H]1CC[C@H](c2ccc(-c3cnc([C@@H]4CCCN4C(=O)[C@H](NC(=O)N4CCOCC4)C(C)C)[nH]3)cc2)CC1", "HCV genotype 1b replicon in Huh 7 cells", "10 to 999 nM"),
    ("CN1CCN(C(=O)N[C@@H](C(=O)N2CCC[C@H]2c2ncc(-c3ccc(C4CCC(c5cnc([C@@H]6CCCN6C(=O)[C@H](NC(=O)N6CCN(C)CC6)c6ccccc6)o5)CC4)cc3)[nH]2)c2ccccc2)CC1 (some centres unmarked)", "HCV genotype 1b replicon in Huh 7 cells", "1 to 9.9 nM"),
    ("COC(=O)N[C@H](C(=O)N1CCC[C@H]1c1ncc(-c2ccc([C@H]3CC[C@H](c4cnc([C@@H]5CCCN5C(=O)[C@@H](c5ccccc5)N5CCCCC5)[nH]4)CC3)cc2)[nH]1)C(C)C", "HCV genotype 1b replicon in Huh 7 cells", "< 1 nM"),
    ("COC(=O)N[C@H](C(=O)N1CCC[C@H]1c1ncc(-c2ccc([C@H]3CC[C@H](c4cnc([C@@H]5CCCN5C(=O)[C@H](NC(=O)OC)c5ccccc5)[nH]4)CC3)cc2)[nH]1)C(C)C", "HCV genotype 1b replicon in Huh 7 cells", "< 1 nM"),
    ("COC(=O)N[C@H](C(=O)N1CCC[C@H]1c1ncc(-c2ccc([C@H]3CC[C@](C)(c4cnc([C@@H]5CCCN5C(=O)[C@@H](NC(=O)OC)C(C)C)[nH]4)CC3)cc2)[nH]1)C(C)C", "HCV genotype 1b replicon in Huh 7 cells", "< 1 nM"),
]

# EC50 lookup, item CN(C)[C@@H](C(=O)N1CCC[C@H]1c1ncc(C2CCC(c3ccc(-c4cnc([C@@H]5CCCN5C(=O)[C@H](NC(=O)C5CC5)c5ccccc5)[nH]4)cc3)CC2)[nH]1)c1ccccc1 (some centres unmarked)
< 1 nM

# EC50 lookup, item `CC(C)[C@@H](NC(=O)OC(C)(C)C)C(=O)N1CCC[C@H]1C(=O)N[C@H]1CC[C@H](c2ccc(-c3cnc([C@@H]4CCCN4C(=O)[C@H](NC(=O)OC(C)(C)C)C(C)C)[nH]3)cc2)CC1`
10 to 999 nM

# EC50 lookup, item `O=C(N[C@H]1CC[C@H](c2ccc(-c3cnc([C@@H]4CCCN4C(=O)[C@H](NC(=O)N4CCOCC4)c4ccccc4)[nH]3)cc2)CC1)[C@@H]1CCCN1C(=O)[C@H](NC(=O)N1CCOCC1)c1ccccc1`
1 to 9.9 nM

* * *

Reported EC50 by item:
- Test system: HCV genotype 1b replicon in Huh 7 cells
- assay protocol: HCV replicon assay (luciferase readout, 1b_Huh-Luc/Neo-ET cell line)
- Assay type: cell-based
- experimental context: Hepatitis C virus, Huh-7, 72 h, read-out: Inhibition of HCV genotype 1b, Table 1, 72 h incubation

As a guide, the following entries are already answered.
# molecule, measurement
measured = [
    ("CC(C)(C)OC(=O)N[C@@H](C(=O)N1CCC[C@H]1C(=O)NC1CCC(c2ccc(-c3cnc([C@@H]4COCCN4C(=O)[C@H](NC(=O)OC(C)(C)C)c4ccccc4)[nH]3)cc2)CC1)c1ccccc1 (stereo partly drawn) [compound 368]", "< 1 nM"),
    ("CNC(=O)N[C@H](C(=O)N1CCC[C@H]1c1ncc(-c2ccc([C@H]3CC[C@H](c4cnc([C@@H]5CCCN5C(=O)[C@H](NC(=O)OC)c5ccccc5)[nH]4)CC3)cc2)[nH]1)C(C)C [compound 2004]", "< 1 nM"),
]

# EC50 lookup, item COC(=O)N[C@@H](C(=O)N1CCC[C@H]1c1ncc(C2CCC(c3ccc(-c4cnc([C@@H]5CCCN5C(=O)[C@@H](c5ccccc5)N5CCCC5)[nH]4)cc3)CC2)[nH]1)c1ccccc1 (stereo partly drawn) [compound 379]
< 1 nM
